Quick reference for inhibition at 100 µM among some compounds
target: UniProtKB P34913; assay: sEH inhibitory activity, fluorescence assay with PHOME substrate; format: biochemical; conditions: 100 µM compound; tested three times
Sequence (P34913 whole entry): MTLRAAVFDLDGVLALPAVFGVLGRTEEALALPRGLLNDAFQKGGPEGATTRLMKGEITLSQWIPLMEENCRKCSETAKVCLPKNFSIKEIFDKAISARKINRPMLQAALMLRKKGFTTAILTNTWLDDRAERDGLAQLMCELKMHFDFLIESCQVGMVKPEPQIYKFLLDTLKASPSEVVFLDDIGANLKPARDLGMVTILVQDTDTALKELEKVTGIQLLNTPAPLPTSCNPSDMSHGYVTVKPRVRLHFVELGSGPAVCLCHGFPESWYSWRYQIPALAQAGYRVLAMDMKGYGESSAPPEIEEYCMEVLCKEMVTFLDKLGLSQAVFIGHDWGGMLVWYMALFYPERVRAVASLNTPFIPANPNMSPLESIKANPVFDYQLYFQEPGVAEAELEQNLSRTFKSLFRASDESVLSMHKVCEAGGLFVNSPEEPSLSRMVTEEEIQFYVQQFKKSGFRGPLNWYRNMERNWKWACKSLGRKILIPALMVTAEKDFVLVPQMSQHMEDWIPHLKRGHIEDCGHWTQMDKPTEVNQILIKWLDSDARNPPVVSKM
Give the quantity in %, number only.

Example entries and their recorded answers appear below.
COc1cc(C2c3cc(O)c(OC)cc3CC(CO)C2COC2OC(C)C(O)C(O)C2O)ccc1O (stereo not drawn) [Compound 18]    52.3
OC[C@H]1O[C@@H](OCCc2ccccc2)[C@H](O)[C@@H](O)[C@@H]1O [Compound 34]    13.3
CC/C=C\CCO[C@@H]1O[C@H](CO)[C@@H](O)[C@H](O)[C@H]1O [Compound 37]    24.6

Ask | Given the entry O=C(O)c1ccc(O)cc1 [Compound 25] , what inhibition at 100 µM was observed with UniProtKB P34913?
Reply | 42

Ask | Given the entry O=C(C=Cc1ccc(O)c(O)c1)OC1C(O)CC(O)(C(=O)O)CC1O (stereo not drawn) [Compound 7] , what inhibition at 100 µM was observed with UniProtKB P34913?
Reply | 69.2

Ask | Given the entry O=Cc1ccc(O)c(O)c1 [Compound 24] , what inhibition at 100 µM was observed with UniProtKB P34913?
Reply | 38.6

Ask | Given the entry COC(=O)[C@]1(O)C[C@@H](O)[C@@H](O)[C@H](OC(=O)/C=C/c2ccc(O)c(O)c2)C1 [Compound 6] , what inhibition at 100 µM was observed with UniProtKB P34913?
Reply | 111

Ask | Given the entry CCCCOC(=O)[C@@]1(O)C[C@@H](O)[C@H](O)[C@H](OC(=O)/C=C/c2ccc(O)c(O)c2)C1 [Compound 5] , what inhibition at 100 µM was observed with UniProtKB P34913?
Reply | 77.7

Ask | Given the entry COc1cc(/C=C/C(=O)O)ccc1O [Compound 31] , what inhibition at 100 µM was observed with UniProtKB P34913?
Reply | 43
